testSummary: qHTS assay to identify small molecule antagonists of the thyroid receptor (TR) signaling pathway - cell viability counter screen (AID 743064); also: nearly all actives have a fitted effect of over 50% in size; also: potency is read from the fitted curve at half-maximal effect
conditionLabel: GH3.TRE-Luc viability, CellTiter-Fluor, 24 h; series mostly up to 70.3 µM
Records with an inconclusive call do not appear. Activity calls are given as the source filed them. Calls follow the shape of the dose curve; as a rule, active = well fitted cell-killing curve with a large enough effect in the repeat runs; inconclusive = weak or mixed curves, or effect the other way; inactive = no such curve, though single readings can be large or run the other way.
assayEndpoint: Potency

* COCCOc1cc2cc(C(=O)NC3CCN(C(C)C)CC3)n(CC(=O)Nc3ccc(Cl)cn3)c2cn1 | 60.4 µM (active)
* Cc1ccc(O)c(N)c1 | 30.7 µM (active)
* Clc1ccnc(Cl)n1 | inactive
* OC/C=C/CO | inactive
* O=C(/C=C/c1ccc(O)c(O)c1)O[C@@H](C(=O)O)[C@@H](OC(=O)/C=C/c1ccc(O)c(O)c1)C(=O)O | inactive
* Nc1ccc(NCCO)c([N+](=O)[O-])c1 | 54.5 µM (active)
* CC(C)CCCCCOC(=O)CCS | inactive
* O=C(O)Cc1ccccc1Nc1c(Cl)cccc1Cl | inactive
* COC(=O)C1=C(C)NC(C)=C(C(=O)OCCN2CCN(C(c3ccccc3)c3ccccc3)CC2)C1c1cccc([N+](=O)[O-])c1 (configuration not stated) | 8.41 µM (active)
* CC(C)(c1cc(Br)c(OCC(Br)CBr)c(Br)c1)c1cc(Br)c(OCC(Br)CBr)c(Br)c1 (configuration not stated) | inactive
* CCn1c2ccccc2c2cc([N+](=O)[O-])ccc21 | inactive
* Cc1cccc2cccnc12 | inactive
